Each entry below carries its reported koff.
biological target: T1, eukaryotically produced human IL-6 (human, UniProt P05231 30-212); assay: SPR; purified Fab
T1 construct: also called eukIL-6; Euk IL-6
Give just the number in s⁻¹; leave the unit off.

Below, 2 binders whose answers are already recorded.
1) Fab 17F10 (Fab, V domains shown, Fab; also called 17F10 pur Fab 68 nM) VH: EVQLQESGPGLVKPSQTLSLTCTVSGGSIATSYYAWSWIRQPPGKGLEWMGVIDYDGDTYYKPSLKSRTSISRDTSKNQFSLQLSSVTPEDTAVYYCARAGLGDSYYLGTYYAMDYWGKGTLVTVSS VL: QAGLTQPPSVSGSPGKTVTISCAGTTSDVGTGNFVSWYQQLPGMAPKLLIYDVNKRASGIADRFSGSKSGNTASLTISGLQSEDEADYYCASYRSLNNVVFGGGTHLTVLG :: 0.00072
2) Fab 42H1/36A1 (Fab, V domains shown, VL-shuffled Fab of 18C11) VH: EVQLVESGGGLVQPGGSLRLSCAASGFTFSSYAMSWVRQAPGKGLEWVSAINSGGGSTSYADSVKGRFTISRDNAKNTLYLQMNSLKPEDTAVYYCAKEGDTGWKDPMYDYWGQGTQVTVSS VL: AQSALTQPSALSVTLGQTAKITCQGGSLGTRYAHWYQQKPGQAPVLVIYDDDSRPSGIPERFSGSSSGGRATLTISGAQAEDEGDYYCQSADSSGNASVFGGGTHLTVLG :: 0.00011

[in] Specify reported koff for the binder shown: Fab 18C11 (Fab, V domains shown, Fab) VH: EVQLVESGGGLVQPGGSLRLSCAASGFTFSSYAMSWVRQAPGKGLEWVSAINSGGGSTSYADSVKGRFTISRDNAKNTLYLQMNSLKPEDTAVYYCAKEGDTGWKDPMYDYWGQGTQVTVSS VL: QSVVTQPSALSVTLGQTAKITCQGGGLRSSYAHWYQQKPGQAPVLVIYDDDSRPSGIPERFSGSSSGGRATLTISGAQAEDEGDYYCQSADSSGNAAVFGGGTHLTVLG
[out] 0.00076

These measurements were taken from patent US20220073604A1.
